- Test system: up to 32 different microorganisms
- assay-notes: in vitro antibacterial activity (MIC), agar dilution on Brain Heart Infusion (BHI) agar with Steers replicator
- Type: cell-based
- condition-details: organism code VV; unit assumed
So I've got a bunch of compounds here, and I need their MIC values.
The answer is to be given in µg/mL; state only the numeric part.

Specify MIC for CCC1OC(=O)C(C)C(=O)C(C)C(OC2OC(C)CC(N(C)C)C2O)C(C)(OCC=Cc2cnc3ccc(N)cc3c2)CC(C)C(=O)C(C)C2NC(=O)OC12C (centres unmarked) [Example 201, R is —CH2CH═CH-(6-amino-3-quinolyl)] and stop.
0.2

Specify MIC for CCC1OC(=O)C(C)C(=O)C(C)C(OC2OC(C)CC(N(C)C)C2O)C(C)(OCC=Cc2ccc3cc(O)ccc3c2)CC(C)C(=O)C(C)C2NC(=O)OC12C (centres unmarked) [Example 287] and stop.
0.05

Specify MIC for CC[C@H]1OC(=O)[C@H](C)C(=O)[C@H](C)[C@@H](O[C@@H]2O[C@H](C)C[C@H](N(C)C)[C@H]2O)[C@@](C)(OCC=NOCc2ccc([N+](=O)[O-])cc2)C[C@@H](C)C(=O)[C@H](C)[C@H]2NC(=O)O[C@@]21C [Example 230] and stop.
0.05

Specify MIC for CC[C@H]1OC(=O)[C@H](C)C(=O)[C@H](C)[C@@H](O[C@@H]2O[C@H](C)C[C@H](N(C)C)[C@H]2O)[C@@](C)(OCC=NOCc2ccccc2)C[C@@H](C)C(=O)[C@H](C)[C@H]2NC(=O)O[C@@]21C [Example 229] and stop.
0.2

Specify MIC for CC[C@H]1OC(=O)[C@H](C)C(=O)[C@H](C)[C@@H](O[C@@H]2O[C@H](C)C[C@H](N(C)C)[C@H]2O)[C@@](C)(OCCNCc2ccc3ncccc3c2)C[C@@H](C)C(=O)[C@H](C)[C@H]2NC(=O)O[C@@]21C [Example 227] and stop.
0.05

Specify MIC for CC[C@H]1OC(=O)[C@H](C)C(=O)[C@H](C)[C@@H](O[C@@H]2O[C@H](C)C[C@H](N(C)C)[C@H]2O)[C@@](C)(OCC=NOCc2ccnc3ccccc23)C[C@@H](C)C(=O)[C@H](C)[C@H]2NC(=O)O[C@@]21C [Example 231] and stop.
0.05

Specify MIC for C=C(C#CCO[C@@]1(C)C[C@@H](C)C(=O)[C@H](C)[C@H]2NC(=O)O[C@]2(C)[C@@H](CC)OC(=O)[C@H](C)C(=O)[C@H](C)[C@H]1O[C@@H]1O[C@H](C)C[C@H](N(C)C)[C@H]1O)c1ccccc1 [Example 257] and stop.
0.2

Specify MIC for CCC1OC(=O)C(C)C(=O)C(C)C(OC2OC(C)CC(N(C)C)C2O)C(C)(OCC=Cc2ccc3ncc(-c4cccs4)cc3c2)CC(C)C(=O)C(C)C2NC(=O)OC12C (centres unmarked) [Example 275] and stop.
0.2

----------
- System: up to 32 different microorganisms
- assay-notes: in vitro antibacterial activity (MIC), agar dilution on Brain Heart Infusion (BHI) agar with Steers replicator
- Assay type: cell-based
- condition-details: Streptococcus bovis A-5169 (code JJ); unit assumed
So I've got a bunch of compounds here, and I need their MIC values.

Write MIC of CCC1OC(=O)C(C)C(=O)C(C)C(OC2OC(C)CC(N(C)C)C2O)C(C)(OCC=Cc2ccc3ncccc3c2)CC(C)C(=O)C(C)C2NC(=O)OC12C (stereo not drawn) ; system used: up to 32 different microorganisms
≤ 5 ng/mL

Write MIC of CCC1OC(=O)C(C)C(=O)C(C)C(OC2OC(C)CC(N(C)C)C2O)C(C)(OCC=Cc2cncc3ccccc23)CC(C)C(=O)C(C)C2NC(=O)OC12C (stereo not drawn) ; system used: up to 32 different microorganisms
≤ 5 ng/mL

Write MIC of CCC1OC(=O)C(C)C(=O)C(C)C(OC2OC(C)CC(N(C)C)C2O)C(C)(OCC=Cc2ccc3[nH]ccc3c2)CC(C)C(=O)C(C)C2NC(=O)OC12C (stereo not drawn) ; system used: up to 32 different microorganisms
≤ 5 ng/mL

----------
- Test system: up to 32 different microorganisms
- assay-notes: in vitro antibacterial activity (MIC), agar dilution on Brain Heart Infusion (BHI) agar with Steers replicator
- Type: cell-based
- condition-details: organism code II; unit assumed
So I've got a bunch of molecules here, and I need their MIC values.
The answer is to be given in µg/mL; state only the numeric part.

Specify MIC for "CC[C@H]1OC(=O)[C@H](C)C(=O)[C@H](C)[C@@H](O[C@@H]2O[C@H](C)C[C@H](N(C)C)[C@H]2O)[C@@](C)(OCC=Cc2ccc3ncc(Br)cc3c2)C[C@@H](C)C(=O)[C@H](C)[C@H]2NC(=O)O[C@@]21C" and stop.
0.05

Specify MIC for "CC[C@H]1OC(=O)[C@H](C)C(=O)[C@H](C)[C@@H](O[C@@H]2O[C@H](C)C[C@H](N(C)C)[C@H]2O)[C@@](C)(OCCNCc2cnc3ccccc3c2)C[C@@H](C)C(=O)[C@H](C)[C@H]2NC(=O)O[C@@]21C" and stop.
0.05

Specify MIC for CCC1OC(=O)C(C)C(=O)C(C)C(OC2OC(C)CC(N(C)C)C2O)C(C)(OCC=Cc2ccc3cc(O)ccc3c2)CC(C)C(=O)C(C)C2NC(=O)OC12C (centres unmarked) and stop.
0.05

Specify MIC for CCC1OC(=O)C(C)C(=O)C(C)C(OC2OC(C)CC(N(C)C)C2O)C(C)(OCC#Cc2cnc3ccccc3c2)CC(C)C(=O)C(C)C2NC(=O)OC12C (centres unmarked) and stop.
0.02

Specify MIC for CCC1OC(=O)C(C)C(=O)C(C)C(OC2OC(C)CC(N(C)C)C2O)C(C)(OCC=Cc2cnc3ccc(OC)cc3c2)CC(C)C(=O)C(C)C2NC(=O)OC12C (centres unmarked) and stop.
0.02

Specify MIC for "CC[C@H]1OC(=O)[C@H](C)C(=O)[C@H](C)[C@@H](O[C@@H]2O[C@H](C)C[C@H](N(C)C)[C@H]2O)[C@@](C)(OCC#Cc2ccc3cc(Cl)ccc3c2)C[C@@H](C)C(=O)[C@H](C)[C@H]2NC(=O)O[C@@]21C" and stop.
0.05

Specify MIC for CCC1OC(=O)C(C)C(=O)C(C)C(OC2OC(C)CC(N(C)C)C2O)C(C)(OCC=Cc2cc3nccnc3cc2[N+](=O)[O-])CC(C)C(=O)C(C)C2NC(=O)OC12C (centres unmarked) and stop.
0.02

Specify MIC for CCC1OC(=O)C(C)C(=O)C(C)C(OC2OC(C)CC(N(C)C)C2O)C(C)(OCC=Cc2ccnc3ccccc23)CC(C)C(=O)C(C)C2NC(=O)OC12C (centres unmarked) and stop.
0.1

Specify MIC for CCC1OC(=O)C(C)C(=O)C(C)C(OC2OC(C)CC(N(C)C)C2O)C(C)(OCC=Cc2ccc(F)c3ccccc23)CC(C)C(=O)C(C)C2NC(=O)OC12C (centres unmarked) and stop.
0.2

Specify MIC for CCC1OC(=O)C(C)C(=O)C(C)C(OC2OC(C)CC(N(C)C)C2O)C(C)(OCCCc2cnc3ccccc3c2)CC(C)C(=O)C(C)C2NC(=O)OC12C (centres unmarked) and stop.
0.1

Specify MIC for "CC[C@H]1OC(=O)[C@H](C)C(=O)[C@H](C)[C@@H](O[C@@H]2O[C@H](C)C[C@H](N(C)C)[C@H]2O)[C@@](C)(OCC#Cc2ccc3cc(OC)ccc3c2)C[C@@H](C)C(=O)[C@H](C)[C@H]2NC(=O)O[C@@]21C" and stop.
0.05

----------
- Test system: up to 32 different microorganisms
- assay-notes: in vitro antibacterial activity (MIC), agar dilution on Brain Heart Infusion (BHI) agar with Steers replicator
- Type: cell-based
- condition-details: organism code QQ; unit assumed
assay-endpoint: MIC

Specify MIC for CC[C@H]1OC(=O)[C@H](C)C(=O)[C@H](C)[C@@H](O[C@@H]2O[C@H](C)C[C@H](N(C)C)[C@H]2O)[C@@](C)(OCC#Cc2cnc3ccc([N+](=O)[O-])cc3c2)C[C@@H](C)C(=O)[C@H](C)[C@H]2NC(=O)O[C@@]21C [Example 248] and stop.
50 µg/mL

Specify MIC for CC[C@H]1OC(=O)[C@H](C)C(=O)[C@H](C)[C@@H](O[C@@H]2O[C@H](C)C[C@H](N(C)C)[C@H]2O)[C@@](C)(OCCNCCCCc2ccccc2)C[C@@H](C)C(=O)[C@H](C)[C@H]2NC(=O)O[C@@]21C [Example 224] and stop.
25 µg/mL

Specify MIC for CC[C@H]1OC(=O)[C@H](C)C(=O)[C@H](C)[C@@H](O[C@@H]2O[C@H](C)C[C@H](N(C)C)[C@H]2O)[C@@](C)(OCC=NOCc2ccccc2)C[C@@H](C)C(=O)[C@H](C)[C@H]2NC(=O)O[C@@]21C [Example 229] and stop.
> 100 µg/mL
